B1: HDV Ribozyme (parent)
chain: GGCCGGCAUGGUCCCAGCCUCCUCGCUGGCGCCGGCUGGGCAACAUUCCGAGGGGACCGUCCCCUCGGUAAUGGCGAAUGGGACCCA

Variants of: B1
Method Notes: self-cleavage, relative activity (ratio to wild type); higher = more cleavage; co-transcriptional
For each record, write down the corresponding self-cleavage.
Number only, please.

Dear colleague, I am looking for the recorded self-cleavage of the following variant: U37C A43U
0.172

I am curious: what self-cleavage value has been reported for C26G C85U ?
0.956

Reported self-cleavage, variant C30U A87G : ____
0.699

Entry U27A G74A : reported self-cleavage = ?
0.0437

Any idea what self-cleavage was measured for G5C U37C ?
0.161

Returns the measured self-cleavage for the input variant. Input: G5U G11A
0.18

Reported self-cleavage for C14U G76A : what is it?
1.49

I have this variant here, C41U C61G , and I need its recorded self-cleavage.
0.923

Can you look up the measured self-cleavage of A56U C66U for me?
0.923

Query (variant): G38A C63U ; field requested: self-cleavage
0.0923

Name the recorded self-cleavage for C13G C19G .
0.0791

Quick check: self-cleavage of A16C C21A ?
0.0437

Entry G1U C24G : reported self-cleavage = ?
0.447

Need self-cleavage, item U20C U27G
0.185

Give its self-cleavage value. Item: G74A U79A
0.0852

Need self-cleavage, item G25A G81A
0.125

Look up self-cleavage for this variant: G2A A71U
0.106

Given U27G G31A , state its recorded self-cleavage.
0.539

Find the recorded self-cleavage belonging to U60G U79C and report it.
0.203

# input variant: C18U A71C ; wanted: its self-cleavage
0.259

Recorded self-cleavage for G25A G53C , please?
0.248

Find the recorded self-cleavage belonging to G68C A78G and report it.
0.426

Please look up its self-cleavage: G6U G40A
0.587

Give the measured self-cleavage of C4G G53C .
0.213

Return reported self-cleavage; argument: C22G C41A
0.0346

# input variant: G25A U60A ; wanted: its self-cleavage
0.295

Request the reported self-cleavage associated with G11C G31A
0.0804

Endpoint output: self-cleavage of G11A C13U . Value?
0.0297

For the variant A42G A71G , what self-cleavage is on record?
0.554

Item C19G U46G has what recorded self-cleavage?
0.107

Can you share its self-cleavage? I mean this variant: C30U A70U
0.782

Recorded self-cleavage for C24A C75U , please?
0.169

Given the entry C85U C86G , report its measured self-cleavage.
0.946

What self-cleavage value was documented for this variant, G25C U60C ?
0.0504

# lookup: self-cleavage of C33G G53C
0.156

Requested read-out: self-cleavage. Entry: C58G A87U
0.897

Dear colleague, I am looking for the recorded self-cleavage of the following variant: C4A G52C
0.406

Reported self-cleavage, variant G31C C49G : ____
0.253

Quick check: self-cleavage of G2C C86G ?
0.0252

May I ask what self-cleavage has been recorded for U46G C61A ?
0.617
